# target_or_test_system: UniProtKB P10635
# Sequence (P10635 whole entry): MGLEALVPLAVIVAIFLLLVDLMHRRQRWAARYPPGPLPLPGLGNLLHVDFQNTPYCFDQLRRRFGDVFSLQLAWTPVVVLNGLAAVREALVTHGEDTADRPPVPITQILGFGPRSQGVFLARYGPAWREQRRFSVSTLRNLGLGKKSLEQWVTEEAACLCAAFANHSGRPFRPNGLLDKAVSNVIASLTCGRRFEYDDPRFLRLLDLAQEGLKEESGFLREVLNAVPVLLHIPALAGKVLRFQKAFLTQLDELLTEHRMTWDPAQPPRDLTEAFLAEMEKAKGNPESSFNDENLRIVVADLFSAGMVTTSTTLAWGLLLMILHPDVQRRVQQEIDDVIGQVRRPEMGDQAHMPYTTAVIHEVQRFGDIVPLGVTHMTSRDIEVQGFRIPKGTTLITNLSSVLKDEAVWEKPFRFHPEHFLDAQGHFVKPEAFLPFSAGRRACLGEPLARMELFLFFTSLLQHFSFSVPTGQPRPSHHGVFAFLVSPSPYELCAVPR
# assay_remarks: CYP2D6 luminescent assay (Glo kit)
# Experimental: The inhibitory potential of the compound against the CYP2D6 isoform was evaluated employing a methodology analogous to the CYP3A4 assay, albeit with a different set of reference compounds. The effect of SERAAK2 on the activity of the cytochrome P450 isoforms CYP3A4 and CYP2D6 was tested using commercial luminescence assays (Glo kits bought from Promega, Medison, WI, USA). The experiment was performed twice with triplicate samples, following the manufacturer’s guidelines and established procedures.
pIC50: −log10 of the molar value.
recorded_endpoint: pIC50

compound="OC(CNCCc1c[nH]c2ccccc12)COc1ccc(Oc2ccccc2)cc1 (stereo not shown)" recorded_endpoint=pIC50 recorded_measurement=6.00
